Target or system MDA-MB-435: recorded GI50 listed per item.
Give bare numbers, in nM.

Completed entries (count: 3):
>  <COMPOUND>
COc1cc(/C=C/c2cc3ccccc3o2)cc(OC)c1OC [Formula (I)(c)]

>  <MEASURED_NUMBER>
0.078

$$$$
>  <COMPOUND>
COc1cc(/C(C#N)=C/c2ccc3ccccc3n2)cc(OC)c1OC [PNR-4-90]

>  <MEASURED_NUMBER>
33

$$$$
>  <COMPOUND>
COc1cc(/C=C/c2nc3ccccc3s2)cc(OC)c1OC [Formula (I)(d)]

>  <MEASURED_NUMBER>
0.024

$$$$

Could you now consider this next compound?
What value of measured GI50 is listed for COc1cc(OC)cc(/C(C#N)=C/c2c[nH]c3ccccc23)c1 [Formula (I)(b)] ? 20.3
